Tested on: A(H3N2)v viruses
Assay: microbe, parasite or virus in culture
Type: cell-based, influenza A virus
Conditions: Influenza A virus, H3N2, read-out: median EC50
assayReadout: EC50

**Q:** Requested read-out: EC50. Entry: `O=C1c2c(O)c(=O)ccn2N([C@@H]2c3ccccc3SCc3c2ccc(F)c3F)[C@@H]2COCCN12`
**A:** 1.27 nM

----------
System: A(H1N1)v viruses
Test: microbe, parasite or virus in culture
Assay type: cell-based, influenza A virus
Conditions: Influenza A virus, H1N1, read-out: EC50 range
assayReadout: EC50

**Q:** Lab request: please report EC50 under test system A(H1N1)v viruses for O=C1c2c(O)c(=O)ccn2N([C@@H]2c3ccccc3SCc3c2ccc(F)c3F)[C@@H]2COCCN12 [baloxavir, baloxavir acid]
**A:** 0.44 to 1.36 nM
